Consider the following compounds; for each one, report its melting point.

Solved entries:
# melting point of CC(=O)N(c1nc(CCl)cs1)c1ccccc1F = 150 to 155 °C

# melting point of C=CC(=O)NCc1cnc(C)s1 = 111 to 113 °C

# melting point of O=C(CCl)Nc1c(Cl)cccc1Cl = 178 to 180 °C

Give one value of melting point per listed compound.
1. Cc1nn(Cc2ccc(Cl)cc2)c(O)c1C=O
2. O=C(O)C1CCc2nncn2C1 (centres undefined)
3. Nc1nc(CCCC(=O)O)cs1
4. O=c1cc(CO)nc2ccccn12
5. O=C(O)C(=Cc1ccc(Cl)cc1)c1ccc(F)cc1

["179 to 181 °C", "279 to 281 °C", "89 to 91 °C", "172 to 174 °C", "204 to 206 °C"]

Give one value of melting point per listed compound.
1. Cc1oc(S(N)(=O)=O)cc1C(=O)O
2. Cc1nc(-c2cccnc2)nc(Cl)c1C
3. Cc1ccc2c(c1)c(C=O)c(C)n2C
4. O=C(c1ccc(O)cc1)N1CCc2sccc2C1
5. CC1CC(N)=NO1 (centres undefined)
6. COc1cc(NC(=O)C(C)C)c(C(=O)O)cc1OC
7. O=C(O)c1sccc1C1CC1
8. CN(c1ccccc1)S(=O)(=O)c1cccc(C(=O)O)c1

["209 to 211 °C", "72 to 74 °C", "104 to 106 °C", "200 to 202 °C", "95 to 97 °C", "216 to 218 °C", "169 to 171 °C", "148 to 152 °C"]
